Test system: LG0703-F948-PDC complex spheroid viability;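 note: spheroids exposed to agents for 7 days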
Test: Anticancer human tumor LG0703-F948-PDC patient-derived lung adenocarcinoma cell line growth inhibition [RAS]
Conditions: second compound 1 µM; first compound 10 µM; stronger effect = lower value
Source text: RAS pathway inhibitors in Combinations in Complex Spheroids A high-throughput screen of multi-cell type tumor spheroids was designed to identify active combinations of RAS pathway inhibitors and targeted small molecules. Complex spheroids include a stromal component modeled by human endothelial cells (HUVEC) and fibroblasts modeled by human mesenchymal stem cells (MSCs). […] Compounds. […] If the clinical Cmax for an agent had not been determined, the highest concentration tested was 10 microM. […]
// thresholds for viability, T/C classes: LOW = under 7%, MID = from 7% up to 20%, HIGH = 20% and over

Consider the following illustrative entries.
molecule | assigned label
NC1c2ccccc2OC12CCN(c1cnc3c(N4CCCc5ncccc54)n[nH]c3n1)CC2 (centres undefined) + C#Cc1c(F)ccc2cc(O)cc(-c3ncc4c(N5CC6CCC(C5)N6)nc(OCC56CCCN5CC(F)C6)nc4c3F)c12 | LOW
CC(Nc1ccc2c(c1)OCCn1cc(N3C(=O)OCC3C(F)F)nc1-2)C(N)=O (centres undefined) + C#Cc1c(F)ccc2cc(O)cc(-c3ncc4c(N5CC6CCC(C5)N6)nc(OCC56CCCN5CC(F)C6)nc4c3F)c12 | MID
CC1(O)CCCC1n1c(=O)c(C(F)F)cc2cnc(NC3CCN(S(C)(=O)=O)CC3)nc21 (centres undefined) + C=CC(=O)N1CCN(c2nc(OCC3CCCN3C)nc3c(F)c(-c4nc(N)cc(C)c4C(F)(F)F)c(Cl)cc23)C(C)C1 | LOW
C[C@@H](NC(=O)c1ncnc(N)c1Cl)c1ncc(C(=O)Nc2cc(C(F)(F)F)c(Cl)cn2)s1 + C#Cc1c(F)ccc2cc(O)cc(-c3ncc4c(N5CC6CCC(C5)N6)nc(OCC56CCCN5CC(F)C6)nc4c3F)c12 | HIGH
CC(C)NCC(C(=O)N1CCN(c2ncnc3c2C(C)CC3O)CC1)c1ccc(Cl)cc1 (centres undefined) + C=CC(=O)N1CCN(c2nc(OCC3CCCN3C)nc3c(F)c(-c4nc(N)cc(C)c4C(F)(F)F)c(Cl)cc23)C(C)C1 | MID
CC1(O)CCCC1n1c(=O)c(C(F)F)cc2cnc(NC3CCN(S(C)(=O)=O)CC3)nc21 (centres undefined) + C#Cc1c(F)ccc2cc(O)cc(-c3ncc4c(N5CC6CCC(C5)N6)nc(OCC56CCCN5CC(F)C6)nc4c3F)c12 | HIGH
CC(C)NCC(C(=O)N1CCN(c2ncnc3c2C(C)CC3O)CC1)c1ccc(Cl)cc1 (centres undefined) + C#Cc1c(F)ccc2cc(O)cc(-c3ncc4c(N5CC6CCC(C5)N6)nc(OCC56CCCN5CC(F)C6)nc4c3F)c12 | MID
NC1c2ccccc2OC12CCN(c1cnc3c(N4CCCc5ncccc54)n[nH]c3n1)CC2 (centres undefined) + C=CC(=O)N1CCN(c2nc(OCC3CCCN3C)nc3c(F)c(-c4nc(N)cc(C)c4C(F)(F)F)c(Cl)cc23)C(C)C1 | LOW

Incoming: In plain terms, what class is C[C@@H](NC(=O)c1ncnc(N)c1Cl)c1ncc(C(=O)Nc2cc(C(F)(F)F)c(Cl)cn2)s1 + C=CC(=O)N1CCN(c2nc(OCC3CCCN3C)nc3c(F)c(-c4nc(N)cc(C)c4C(F)(F)F)c(Cl)cc23)C(C)C1 ?
Outgoing: HIGH
